Assay: inhibitors of Toxoplasma growth in IFN-γ-primed HeLa – cell-based, ME49Luc, luciferase, 72 h, dose response (AID 1259418)
Conditions: T. gondii ME49Luc in IFN-y HeLa, hits give low values, -100% = high-dose IFN-γ control wells; at 19.5 µM unless noted
Among all 3,400 compounds or so, about 840 (25%) were called active. Not shown: some 11% with an inconclusive outcome. Only a sample is shown. Results with a measured potency or affinity are listed apart.
parameterMeasured: max activity

So what does the record say about max activity for COc1ccccc1CN1CCc2nc(SCc3nc(-c4ccc(C)cc4)oc3C)[nH]c(=O)c2C1 ?
34.1% (inactive)

Which measured max activity value corresponds to Cc1ccc(-c2coc(-c3ccc(NS(=O)(=O)c4cccc(Cl)c4)cc3)n2)c(C)c1 ?
-22.9% (inactive)

What max activity value was documented for this compound, Cc1ccc(S(=O)(=O)N2CC[C@@H]3[C@@H](CO)Nc4ccc(-c5cccc(C(=O)N(C)C)c5)cc4[C@@H]32)cc1 ?
30.1% [at 10 µM] (inactive)

Look up max activity: Cc1ccc(-c2coc(-c3ccc(NS(=O)(=O)c4ccc(C(C)C)cc4)cc3)n2)c(C)c1
-13.7% (inactive)

Looking for the measured max activity of CSCc1noc(CN2CCCC3(C2)CN(C)C(=O)O3)n1 (centres undefined) , can you help?
41.2% (inactive)

# get_value(readout='max activity', item= CCc1ccc2c(c1)cc(S(=O)(=O)c1ccccc1)c(=O)n2CC(=O)NCCCOC )
8.62% [at 10 µM] (inactive)

Reported max activity for Cc1ccc(-c2coc(-c3ccc(NS(=O)(=O)c4ccc(N5CCCC5=O)cc4)cc3)n2)c(C)c1 : what is it?
-11% [at 0.68 µM] (inactive)

Fill in the blank: the reported max activity of Cc1ccc(S(=O)(=O)N2CC[C@@H]3[C@H](CO)Nc4ccc(-c5cccc(C(=O)N(C)C)c5)cc4[C@@H]32)cc1 is ____.
26.4% [at 5 µM] (inactive)

Need max activity of CCn1cc(CN2CCCC2c2cc(C(C)C)no2)c2cc(OC)ccc21 (centres undefined) , thanks.
5.61% [at 0.16 µM] (inactive)

Request the reported max activity associated with Cc1ccc(-c2coc(-c3ccc(NS(=O)(=O)c4ccc(C(C)(C)C)cc4)cc3)n2)c(C)c1
-14.9% (inactive)

----------
# max activity annotations
Assay: inhibitors of Toxoplasma growth in IFN-γ-primed HeLa – cell-based, ME49Luc, luciferase, 72 h, dose response (AID 1259418)
Conditions: T. gondii ME49Luc in IFN-y HeLa, hits give low values, -100% = high-dose IFN-γ control wells; at 19.5 µM unless noted
The campaign covered roughly 3,400 compounds. About 840 (25%) were called active. Roughly 11% stayed inconclusive and do not appear here. These entries were drawn from the full list. Results with a measured potency or affinity are listed apart.

Worked set:
itemSmiles: Cc1ccc(C)c(-c2coc(-c3ccc(NC(=O)Nc4ccc(C)c(F)c4)cc3)n2)c1
parameterMeasured: max activity
dataValue: 15% (inactive)
--
itemSmiles: Cc1ccc(CNc2nc(-c3ccc(Cl)cc3)nc3ccccc23)o1
parameterMeasured: max activity
dataValue: 42.3% (inactive)

# query: max activity of entry COc1ccc(NC(=O)Nc2ccc(-c3nc(-c4ccc(C)cc4C)co3)cc2)cc1
-20.8% [at 0.16 µM] (inactive)

# query: max activity of entry COc1ccccc1Nc1nc(-c2ccc(Cl)cc2)nc2ccccc12
-18.5% [at 0.68 µM] (inactive)

I would be grateful if you could share the reported max activity for COc1ccc(C(=O)Nc2ccc(-c3nc(-c4ccc(C)cc4C)co3)cc2)cc1 .
25.2% [at 0.35 µM] (inactive)

Given the entry COc1cc(OC)cc(C(=O)Nc2ccc(-c3nc(-c4cc(C)ccc4C)co3)cc2)c1 , report its measured max activity.
19.3% [at 0.16 µM] (inactive)

Given the entry C[C@H]1[C@H](NC(=O)/C(=N\OC(C)(C)C(=O)O)c2csc(N)n2)C(=O)N1S(=O)(=O)O , report its measured max activity.
14% [at 21 µM] (inactive)

Origin of values: PubChem BioAssay AID1259418
